- target.of.assay: Cyclin Dependent Kinase 1/Cyclin A2 (CDK1-cycA2) (Homo sapiens)
- Construct: purchased ProQinase 0134-0054-1
- Sequence (P06493 whole entry): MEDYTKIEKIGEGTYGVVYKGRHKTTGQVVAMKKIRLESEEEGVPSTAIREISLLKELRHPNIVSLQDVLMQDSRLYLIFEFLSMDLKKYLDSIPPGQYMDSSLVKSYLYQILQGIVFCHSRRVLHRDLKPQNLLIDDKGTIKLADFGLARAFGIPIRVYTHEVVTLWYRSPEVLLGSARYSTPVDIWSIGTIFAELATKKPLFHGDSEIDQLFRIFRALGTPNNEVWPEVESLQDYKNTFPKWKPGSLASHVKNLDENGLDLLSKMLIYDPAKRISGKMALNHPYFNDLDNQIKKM
- Sequence (P20248 whole entry partner): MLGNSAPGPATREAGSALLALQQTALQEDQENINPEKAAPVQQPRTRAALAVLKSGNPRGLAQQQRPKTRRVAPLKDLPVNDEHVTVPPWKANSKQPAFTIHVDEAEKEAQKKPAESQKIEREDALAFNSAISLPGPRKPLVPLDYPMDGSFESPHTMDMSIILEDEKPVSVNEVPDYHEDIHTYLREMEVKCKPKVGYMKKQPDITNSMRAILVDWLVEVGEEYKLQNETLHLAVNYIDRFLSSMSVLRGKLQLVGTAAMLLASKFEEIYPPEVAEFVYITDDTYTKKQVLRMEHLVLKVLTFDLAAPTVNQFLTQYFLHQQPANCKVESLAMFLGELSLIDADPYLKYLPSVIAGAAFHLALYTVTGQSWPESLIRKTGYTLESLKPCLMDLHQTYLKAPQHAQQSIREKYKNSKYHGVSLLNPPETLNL
- method.description: CDK1-cycA2 TR-FRET (Lance) enzyme assay
- Format: biochemical
- applied.conditions: Table O, enzymatic assay
- Procedure: Cyclin Dependent Kinase 1/Cyclin A2 (CDK1-cycA2), Cyclin Dependent Kinase 2/Cyclin E1 (CDK2-cycE1), Cyclin Dependent Kinase 4/Cyclin D3 (CDK4-cycD3) and Cyclin Dependent Kinase 6/Cyclin D3 (CDK6-cycD3) enzyme assays were carried out as described below. […] An Echo acoustic dispenser is used to create dose responses of compound dissolved in DMSO into a 384-well microplate. […] Signal is a ratio of the Acceptor and Donor fluorescence. Inhibition constants are calculated via the Morrison equation.
measure.name: Ki (nM)

1) CN(C)Cc1ccc(Nc2cc([C@H]3CC[C@@H](OC(=O)NC45CC(C4)C5)C3)[nH]n2)cn1	64
2) Cc1cc(Nc2cc([C@H]3CC[C@@H](OC(=O)NC(C)(C)C)C3)[nH]n2)nn(C)c1=O	3.7
3) O=C(NC12CC(C1)C2)O[C@@H]1CC[C@H](c2cc(Nc3ccnnc3C3CC3)n[nH]2)C1	890
4) Cc1cc(=O)n(C)nc1Nc1cc([C@H]2CC[C@@H](OC(=O)NC(C)(C)C)C2)[nH]n1	65
5) Cc1cnc(Nc2cc([C@H]3CC[C@@H](OC(=O)NC(C)C)C3)[nH]n2)c(C)n1	36
6) Cn1nc(Nc2cc([C@H]3CC[C@@H](OC(=O)NC(C)(C)C)C3)[nH]n2)ccc1=O	3.6

====

- target.of.assay: Cyclin Dependent Kinase 2/Cyclin E1 (CDK2-cycE1) (Homo sapiens)
- Construct: purchased ProQinase 0050-0055-1
- method.description: CDK2-cycE1 TR-FRET (LANCE) enzyme assay;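 for improvement in potency against CDK2 (Ki) over Comparator C: fold lower CDK2 Ki than comparator c (Ki 0.032 µM)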
- Type: biochemical
- applied.conditions: Table Q, in brackets after CDK2 Ki; Comparator C 0.032 μM
Measured improvement in potency against CDK2 (Ki) over Comparator C of individual entries
measure.name: improvement in potency against CDK2 (Ki) over Comparator C (fold)

1) Cc1cc(=O)n(C)cc1Nc1cc([C@H]2CC[C@@H](OC(=O)NC(C)C)C2)[nH]n1 [Example 2S]	0.4
2) CC(C)NC(=O)O[C@@H]1CC[C@H](c2cc(Nc3ccn(C)c(=O)c3)n[nH]2)C1 [Example 2AA]	1.9
3) CC(C)NC(=O)O[C@@H]1CC[C@H](c2cc(Nc3ccc(=O)n(C)n3)n[nH]2)C1 [Example 2]	73
4) CC(C)NC(=O)O[C@@H]1CC[C@H](c2cc(Nc3cccn(C)c3=O)n[nH]2)C1 [Example 2BB]	0.3
5) CC(C)NC(=O)O[C@@H]1CC[C@H](c2cc(Nc3ncnc(N(C)C)n3)n[nH]2)C1 [Example 2Q]	0.8
6) Cc1nc(C#N)ccc1Nc1cc([C@H]2CC[C@@H](OC(=O)NC(C)C)C2)[nH]n1 [Example 2Z]	6.4

====

Measured pKi of individual entries
- target.of.assay: Cyclin Dependent Kinase 2/Cyclin E1 (CDK2-cycE1) (Homo sapiens)
- Construct: purchased ProQinase 0050-0055-1
- method.description: CDK2-cycE1 TR-FRET (LANCE) enzyme assay
- Type: biochemical
- applied.conditions: read-out: CDK2 activity / potency (enzymatic assay)
pKi: −log10 of the molar value.
measure.name: pKi

1) CC(C)(C)NC(=O)O[C@@H]1CC[C@H](c2cc(Nc3ccc4c(n3)CCC4)n[nH]2)C1 [Comparator D, reference compound]	8.57
2) CC(C)(C)NC(=O)O[C@@H]1CC[C@H](c2cc(Nc3ccccc3)n[nH]2)C1 [Comparator E, reference compound]	9.28
3) CNc1nccc(Nc2cc([C@H]3CC[C@@H](OC(=O)NC(C)C)C3)[nH]n2)n1 [Example 2H]	≥ 9.00
4) CC(C)NC(=O)O[C@@H]1CC[C@H](c2cc(Nc3ccc(=O)n(C)n3)n[nH]2)C1 [Example 2]	≥ 9.00
5) COc1nccc(Nc2cc([C@H]3CC[C@@H](OC(=O)NC(C)C)C3)[nH]n2)n1 [Example 2F]	≥ 9.00
6) CC(C)(C)NC(=O)O[C@@H]1CC[C@H](c2cc(NC(=O)Cc3ccnnc3)n[nH]2)C1 [Comparator A, reference compound]	9.77
7) Cc1cnc(Nc2cc([C@H]3CC[C@@H](OC(=O)NC(C)C)C3)[nH]n2)c(C)n1 [Example 2V]	≥ 9.00
8) CC(C)NC(=O)O[C@@H]1CC[C@H](c2cc(Nc3ccnc(N(C)C)n3)n[nH]2)C1 [Example 2I]	≥ 9.00
9) Cn1nc(Nc2cc([C@H]3CC[C@@H](OC(=O)NC45CC(C4)C5)C3)[nH]n2)ccc1=O [Example 6]	≥ 9.00
10) Cc1ncccc1Nc1cc([C@H]2CC[C@@H](OC(=O)NC(C)(C)C)C2)[nH]n1 [Example 4]	≥ 9.00
